- measurement-description: A549 lung cancer cell viability effects, profiling panel, resazurin fluorescence, 24 h, PK04 Diversity Set (AID 1171); further: test concentration not given here
- test-conditions: higher = more signal, called active from +8 up or from −8 down

[
  {
    "compound": "CC(CCN1CCc2nc(-c3ccccc3)c(-c3ccccc3)cc2C1)=NO[C@H](C)c1cn([C@@H]2COC[C@H]2O)nn1",
    "z-score": -0.579
  },
  {
    "compound": "CC(C)OC(=O)C=C1C[C@@H](c2ccc(C#N)cc2)O[C@@H](c2ccc(C#N)cc2)O1",
    "z-score": 0.199
  },
  {
    "compound": "CCOC(=O)CCN1C(=O)[C@H]2[C@H]3[C@H](O)[C@H](O)CC(=O)[C@H]3CC[C@H]2C1=O",
    "z-score": -0.125
  },
  {
    "compound": "CCOC(=O)CCN1C(=O)[C@H]2[C@H]3[C@H](O)[C@H](O)CC(=NOC[C@@H](O)COCc4ccco4)[C@H]3CC[C@H]2C1=O",
    "z-score": -0.383
  },
  {
    "compound": "O=C1[C@H]2[C@H]3[C@H](O)[C@H](O)CC(=NOC[C@@H](O)COCc4ccco4)[C@H]3CC[C@H]2C(=O)N1C1CCCCC1",
    "z-score": -0.381
  },
  {
    "compound": "C#C[C@@H](CC)O[Si](C#Cc1ccc(Oc2ccccc2)cc1)(C(C)C)C(C)C",
    "z-score": -0.936
  },
  {
    "compound": "C=C(COC)/C(=C/C[C@H](OC(=O)c1ccncc1)c1ccc(CO)o1)c1cc(C(=O)OC)ccc1OC",
    "z-score": 0.451
  },
  {
    "compound": "CC(C)(C)OC(=O)CC[C@]1(C(N)=O)COC(c2ccc(OCCCO)cc2)=N1",
    "z-score": -1.05
  },
  {
    "compound": "CN1C(=O)C2C(C1=O)C1C=C(CCCO)C2C(c2ccc(CN3CCCC3)cc2)N1C (configuration not stated)",
    "z-score": -1.1
  },
  {
    "compound": "C[C@@H]1C=CCC(=O)OC[C@H](C)C(=O)N2CCC[C@H]2C(=O)OC1",
    "z-score": -0.0059
  },
  {
    "compound": "O=C(NN=C1C[C@@H](O)[C@@H](O)[C@@H]2[C@@H]3C(=O)N(c4ccc(F)cc4F)C(=O)[C@@H]3CC[C@@H]12)OCc1ccccc1",
    "z-score": -0.0526
  },
  {
    "compound": "O=C1CCCC=C1C(O)CCOCc1ccccc1 (configuration not stated)",
    "z-score": -0.323
  },
  {
    "compound": "CO[C@H]1O[C@H](CO)[C@@H](OC(=O)Nc2ccc(C#N)cc2)[C@H](OC(=O)c2cc3ccccc3[nH]2)[C@H]1OC(=O)c1cc2ccccc2[nH]1",
    "z-score": -1.49
  },
  {
    "compound": "COC(=O)C1=CCC(c2cccc(Cl)c2)O1 (configuration not stated)",
    "z-score": 0.107
  },
  {
    "compound": "CCCCCN1CC=CC23O[C@@H]4C=CCOC(=O)[C@@H]4[C@H]2C(=O)N(C(CO)C(C)C)[C@@H]3C1=O (some centres not stated)",
    "z-score": 0.0963
  },
  {
    "compound": "CC(CCN1CCc2nc(-c3ccccc3)c(-c3ccccc3)cc2C1)=NOC[C@@H](C)[C@H](OCc1ccccc1)C(C)C",
    "z-score": -0.611
  },
  {
    "compound": "COc1ccccc1CN1C(=O)c2ccccc2[C@@H](C(=O)NCC(F)(F)F)[C@@H]1c1ccc(CO)cc1",
    "z-score": 0.633
  }
]
